Ref: patent US11331299B2

- target_or_test_system: UHRF1 (108-286) (h) (Homo sapiens)
- Sequence (Q96T88 108-286): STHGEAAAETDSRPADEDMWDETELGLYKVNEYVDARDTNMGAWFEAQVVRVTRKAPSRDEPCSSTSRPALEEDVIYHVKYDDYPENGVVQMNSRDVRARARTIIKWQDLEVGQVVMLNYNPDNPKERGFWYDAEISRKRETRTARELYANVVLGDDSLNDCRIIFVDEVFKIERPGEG
attribute_measured: pIC50
On this scale, pIC50 is minus log10 of a concentration expressed in M (mol/L).

// sample CC(C)=CCC[C@H](CO)[C@@H]1CC[C@@H](C)c2c1cc(C)c(O)c2O [Compound 1, 7,8,18-trihydroxyserrulat-14-ene] , its pIC50 was 4.96

* * *

- Test system: 280 human cancer cell lines
- method_description: OncoPanel cell proliferation assay (10-day)
- Format: cell-based
- measurement_context: Homo sapiens, LS-411N, LS411N, Colon; read-out: Cell Count IC50
Item-by-item account of pIC50
On this scale, pIC50 is minus log10 of a concentration expressed in M (mol/L).

Past entries and their recorded results:
1) CC(C)=CCC[C@@H]1C(O)Oc2c(C)cc(O)c3c2[C@H]1CC[C@H]3C (stereo partly drawn) [Compound 2, 5,18-epoxyserrulat-14-en-8,18-diol]    4.62
2) CC(C)=CCC[C@H](CO)[C@@H]1CC[C@@H](C)c2c1cc(C)c(O)c2O [Compound 1, 7,8,18-trihydroxyserrulat-14-ene]    5.06

Next:
// sample CC(C)=CCC[C@H](C)[C@@H]1CC[C@@H](C)c2c1cc(C)c(O)c2O [Compound 4, 7,8-dihydroxyserrulat-14-ene] , its pIC50 was 4.64

* * *

- System: 280 human cancer cell lines
- method_description: OncoPanel cell proliferation assay (10-day)
- Format: cell-based
- measurement_context: Homo sapiens, HeLa, Female GU - Cervix; read-out: Cell Count IC50
attribute_measured: IC50 (µM)
Report the figure in µM without appending any unit label.

1) CC(C)=CCC[C@H](CO)[C@@H]1CC[C@@H](C)c2c1cc(C)c(O)c2O [Compound 1, 7,8,18-trihydroxyserrulat-14-ene]    2.99

// sample CC(C)=CCC[C@@H]1C(O)Oc2c(C)cc(O)c3c2[C@H]1CC[C@H]3C (stereo partly drawn) [Compound 2, 5,18-epoxyserrulat-14-en-8,18-diol] , its IC50 was 16.6

// sample CC(C)=CCC[C@H](C)[C@@H]1CC[C@@H](C)c2c1cc(C)c(O)c2O [Compound 4, 7,8-dihydroxyserrulat-14-ene] , its IC50 was 21.1

* * *

- target_or_test_system: SETD7 (h) (Homo sapiens, UniProt Q8WTS6)
- Sequence (Q8WTS6 whole entry): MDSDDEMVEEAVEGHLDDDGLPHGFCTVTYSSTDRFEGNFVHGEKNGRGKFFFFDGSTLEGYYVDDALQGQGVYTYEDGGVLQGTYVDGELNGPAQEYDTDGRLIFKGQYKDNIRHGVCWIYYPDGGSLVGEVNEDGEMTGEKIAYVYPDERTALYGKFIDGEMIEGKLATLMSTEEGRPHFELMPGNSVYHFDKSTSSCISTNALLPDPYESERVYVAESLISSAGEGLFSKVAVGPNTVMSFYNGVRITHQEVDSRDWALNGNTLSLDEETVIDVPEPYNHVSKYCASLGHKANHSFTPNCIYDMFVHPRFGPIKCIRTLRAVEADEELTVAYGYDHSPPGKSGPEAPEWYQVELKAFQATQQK
- method_description: Epigenetic enzyme assay, Methyltransferases (MTs)
- Format: biochemical
- measurement_context: read-out: Reference IC50
attribute_measured: pIC50
On this scale, pIC50 is minus log10 of a concentration expressed in M (mol/L).

// sample Nc1ncnc2c1ncn2[C@@H]1O[C@H](CSCC[C@H](N)C(=O)O)[C@@H](O)[C@H]1O [SAH] , its pIC50 was 4.62

* * *

- System: 280 human cancer cell lines
- method_description: OncoPanel cell proliferation assay (10-day)
- Assay type: cell-based
- measurement_context: Homo sapiens, HOS, Soft Tissue - Osteosarcoma; read-out: Cell Count EC50
Item-by-item account of pEC50
On this scale, pEC50 is minus log10 of a concentration expressed in M (mol/L).

Past entries and their recorded results:
1. CC(C)=CCC[C@H](C)[C@@H]1CC[C@@H](C)c2c1cc(C)c(O)c2O [Compound 4, 7,8-dihydroxyserrulat-14-ene]    5.51
2. CC(C)=CCC[C@H](CO)[C@@H]1CC[C@@H](C)c2c1cc(C)c(O)c2O [Compound 1, 7,8,18-trihydroxyserrulat-14-ene]    6.02

Next:
// sample CC(C)=CCC[C@@H]1C(O)Oc2c(C)cc(O)c3c2[C@H]1CC[C@H]3C (stereo partly drawn) , its pEC50 was 5.32
